The measurements presented in this section are drawn from the supplement of paper PMC7125110.

# Lookup of reported kcat keyed by entry
B1: glmS ribozyme (parent)
chain: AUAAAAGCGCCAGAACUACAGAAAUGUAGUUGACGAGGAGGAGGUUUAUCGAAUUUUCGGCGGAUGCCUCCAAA

Variants of: B1
procedure-details: kcat; higher = faster cleavage; RNA array
cond: with glucosamine-6-phosphate
Variants at the floor of the assay were thinned out.

mut | relation-operator | kcat (s⁻¹)
A15G U31G A39U | = | 0.00331
A53C G66A | = | 0.00434
G38C C68A | = | 1.39e-05
G38A C71U | < | 1e-05
A39C A64G | = | 0.00631
A39C G40C | = | 0.000145
A39U C50G C58U | = | 1.28e-05
A36C A52G | < | 1e-05
C16U G29U | = | 0.00871
G59A C68G | = | 1.72e-05
A15U C50A | = | 1.29e-05
A14U G66U | = | 0.000298
A14C U57A U69A | = | 3.51e-05
U31A U56G | = | 0.0146
G51C C68A | < | 1e-05
U31A G32U | = | 0.00113
C50A C71A | = | 1.53e-05
C58A C68G | = | 3.84e-05
U31A U65G | = | 0.00228
G62A C71G | = | 1.44e-05
A33C A36C G43A A52U | < | 1e-05
U55G U65G | = | 0.00419
